system: SPI1 type III protein secretion of SipB by S. enterica; test: Secondary assay: Type III-dependent protein secretion of the SipB polypeptide by S. enterica; format: cell-based; conditions: Salmonella enterica, read-out: SipB IC50(uM)
Dear colleague, classification is by IC50, with ranges listed here: low band: < 10 µM; middle band: ≥ 10 µM and < 30 µM; high band: ≥ 30 µM

In [3]: df
Out[3]:
                                    molecule   class_name
 0  CC1CCN(c2cc(C(=O)N[C@@H](CSCc3ccccc3)C(=O)O)nc(-c3ccc(-c4ccccc4)cc3)n2)CC1 [Compound 40]  middle band
 1  Cc1cc(C(=O)N[C@@H](COCc2ccccc2)C(=O)O)nc(-c2ccc(-c3ccccc3)cc2)n1 [Compound 36]    high band
 2  O=C(N[C@@H](CSCc1ccccc1)C(=O)O)c1cc(N2CCN(c3ccccc3)CC2)nc(Cl)n1 [Compound 26]    high band
 3  CC1CCN(c2cc(C(=O)N[C@@H](COCc3ccccc3)C(=O)O)nc(-c3ccc(Oc4ccccc4)cc3)n2)CC1 [Compound 38]     low band
 4  O=C(N[C@@H](CSCc1ccccc1)C(=O)O)c1cc(N2CCN(c3ccccc3)CC2)nc(-c2ccc(Cl)cc2)n1 [Compound 24]    high band
 5  CC1CCN(c2nc(C(=O)N[C@@H](COCc3ccccc3)C(=O)O)cc(N3CCN(c4nccc(C(F)(F)F)n4)CC3)n2)CC1 [Compound 47]  middle band
 6  O=C(N[C@@H](COCc1ccccc1)C(=O)O)c1cc(N2CCN(c3nccc(C(F)(F)F)n3)CC2)nc(-c2ccc(F)cc2)n1 [Compound 54]     low band
 7  Cc1cc(C(=O)NC(CSCc2ccccc2)C(=O)O)nc(-c2ccc(-c3ccccc3)cc2)n1 (stereo not drawn) [Compound 35]    high band
 8  O=C(NC(Cc1ccc(Cl)cc1)C(=O)O)c1cc(-c2cccc(C(F)(F)F)c2)nc(N2CCN(c3ccccc3)CC2)n1 (stereo in doubt) [Compound 31]  middle band
 9  O=C(N[C@H](Cc1ccc(Cl)cc1)C(=O)O)c1cc(N2CCc3ccccc3C2)nc(-c2ccc(C(F)(F)F)cc2)n1 [Compound 8]    high band
10  N#Cc1ccc(-c2nc(C(=O)N[C@@H](CSCc3ccccc3)C(=O)O)cc(N3CCN(c4ccccc4)CC3)n2)cc1 [Compound 25]    high band
11  O=C(N[C@@H](CSCc1ccccc1)C(=O)O)c1cc(N2CCN(c3ccccc3)CC2)nc(-c2ccc(C(F)(F)F)cc2)n1 [Compound 23]    high band
12  O=C(N[C@@H](CSCc1ccccc1)C(=O)O)c1cc(N2CCC(c3ccc(F)cc3)CC2)nc(-c2ccc(C(F)(F)F)cc2)n1 [Compound 22]    high band
13  O=C(N[C@@H](CSCc1ccccc1)C(=O)O)c1cc(N2CCC(c3ccccc3)CC2)nc(-c2ccc(F)c(F)c2)n1 [Compound 18]  middle band
14  CN(C)c1ccc(-c2nc(C(=O)N[C@@H](COCc3ccccc3)C(=O)O)cc(N3CCN(c4nccc(C(F)(F)F)n4)CC3)n2)cc1 [Compound 49]     low band
15  O=C(N[C@H](Cc1ccc(Cl)cc1)C(=O)O)c1cc(N2CCCCC2)nc(N2CCC(c3ccccc3)CC2)n1 [Compound 4]  middle band
16  O=C(NC(Cc1ccc(Cl)cc1)C(=O)O)c1cc(N2CCN(c3nccc(C(F)(F)F)n3)CC2)nc(-c2ccc(F)cc2)n1 (stereo not drawn) [Compound 56]     low band
17  O=C(N[C@H](COCc1ccccc1)C(=O)O)c1cc(N2CCC(c3ccccc3)CC2)nc(-c2ccc(Cl)c(Cl)c2)n1 [Compound 11]    high band
18  O=C(N[C@H](Cc1ccc(Cl)cc1)C(=O)O)c1cc(N2CCc3ccccc3C2)nc(-c2cccc(C(F)(F)F)c2)n1 [Compound 7]    high band
19  O=C(N[C@@H](COCc1ccccc1)C(=O)O)c1cc(N2CCCCC2)nc(N2CCC(c3ccccc3)CC2)n1 [Compound 28]  middle band
20  N#Cc1ccc(-c2nc(C(=O)N[C@H](Cc3ccc(Cl)cc3)C(=O)O)cc(N3CCc4ccccc4C3)n2)cc1 [Compound 10]    high band
21  C=C(NC(=O)c1cc(N2CCN(c3nccc(C(F)(F)F)n3)CC2)nc(-c2ccoc2)n1)C(=O)O [Compound 63]    high band
22  CC1CCN(c2nc(C(=O)N[C@@H](CSCc3ccccc3)C(=O)O)cc(N3CCN(c4nccc(C(F)(F)F)n4)CC3)n2)CC1 [Compound 46]  middle band
23  O=C(N[C@@H](CSCc1ccccc1)C(=O)O)c1cc(N2CCN(c3nccc(C(F)(F)F)n3)CC2)nc(-c2ccc([N+](=O)[O-])cc2)n1 [Compound 52]  middle band
24  CC1CCN(c2nc(C(=O)N[C@@H](CSCc3ccccc3)C(=O)O)cc(N3CCN(c4ccccc4)CC3)n2)CC1 [Compound 27]     low band
25  O=C(N[C@@H](COCc1ccccc1)C(=O)O)c1cc(N2CCN(c3nccc(C(F)(F)F)n3)CC2)nc(-c2ccc([N+](=O)[O-])cc2)n1 [Compound 51]    high band
26  C[C@@H](OCc1ccccc1)[C@H](NC(=O)c1cc(N2CCCCC2)nc(N2CCC(c3ccccc3)CC2)n1)C(=O)O [Compound 30]  middle band
